- Tested on: P-815
- protocolDescription: In vitro activity in mouse leukemic cell line P-815
- Format: cell-based
- conditions: P815, P-815, in vitro, read-out: ID50 (the source's name)
endpointName: IC50
Number first, unit second: that is the form wanted.

Worked set:
{"columns": ["compound", "IC50"],
 "data": [
  ["OC[C@H]1O[C@@H](c2c[nH]c3c(=S)[nH]cnc23)[C@H](O)[C@@H]1O [X = NH, R1 = SH, R2 = H]", "5.6 µg/mL"],
  ["Nc1ncnc2c([C@@H]3O[C@H](CO)[C@@H](O)[C@H]3O)csc12 [X = S, R1 = NH2, R2 = H]", "0.0003 µg/mL"],
  ["Nc1nc[nH]c2c([C@@H]3O[C@H](CO)[C@@H](O)[C@H]3O)cnc1-2 [X = NH, R1 = NH2, R2 = H]", "0.001 µg/mL"]
]}

// switching to the query compound
Exam item: Fill blank: measured IC50 of the compound OC[C@H]1O[C@@H](c2csc3c(=S)[nH]cnc23)[C@H](O)[C@@H]1O [X = S, R1 = SH, R2 = H] is ____.
Marked response: 0.5 µg/mL

----------
- System: HL-60
- protocolDescription: In vitro activity in human leukemic cell line HL-60
- Format: cell-based
- conditions: HL-60, in vitro, read-out: ID50 (the source's name)
- From the text: CNUCLEOSIDES IN MOUSE AND HUMAN LEUKYMIC CELL LINES It is noted that the first compound in Table 1 is the compound reported in Lim et al (supra).
Documented IC50 across a set of molecules
Form entry: value (ng/mL) — number only.

Worked set:
{"columns": ["mol", "endpointName", "unitOfMeasurement", "measuredValue"],
 "data": [
  ["Nc1ncnc2c([C@@H]3O[C@H](CO)[C@@H](O)[C@H]3O)csc12", "IC50", "ng/mL", 0.5],
  ["CSc1ncnc2c([C@@H]3O[C@H](CO)[C@@H](O)[C@H]3O)csc12", "IC50", "ng/mL", 8],
  ["Nc1nc[nH]c2c([C@@H]3O[C@H](CO)[C@@H](O)[C@H]3O)cnc1-2", "IC50", "ng/mL", 0.3],
  ["OC[C@H]1O[C@@H](c2csc3c(=S)[nH]cnc23)[C@H](O)[C@@H]1O", "IC50", "ng/mL", 400]
]}

// switching to the query molecule
Exam item: Fill blank: measured IC50 of the molecule O=c1[nH]cnc2c([C@@H]3O[C@H](CO)[C@@H](O)[C@H]3O)csc12 is ____.
Marked response: 400
